- assay_comment: yeast display, Sf9 membrane polyspecificity reagent, FACS + sequencing; frameworks hold sequencing errors
attribute_measured: polyreactivity (PSR sort gate)

{"polymer_sequence": "QVQVVESGGGLVQAGGSLRLSCAASGSTFGYYAMGWYRQAPGKERELVAAISGTGSTYYADSVKGRFTISRDNAKNTVFLQMNSLKPEDTAVYYCAAYPRGSQRYNYWGQGTQVTVSS", "attribute_measured": "polyreactivity (PSR sort gate)", "result": "high polyreactivity"}
{"polymer_sequence": "QVQLVESVGGLVQAGGSLRLSCAGSGFTFYRYTMGWYRQAPGTERELVAAISFSGGITRYADSVKGRFTISRDNAKNTVYLQMNSLKPEDTAVYYCNVVGPSAYLSWHKSGDYWGQGTQVTVSS", "attribute_measured": "polyreactivity (PSR sort gate)", "result": "low polyreactivity"}
{"polymer_sequence": "QVQLVESGGGLVQAGGSLRLSCAASGSIFGWYAMGWYRQAPGKERELVAAITFSSVSTYYADSVKGRFTISRDTAKNTVYLQMNSLKPEDTAVYYCAAVVYYTFDYWGQGTQVTVSS", "attribute_measured": "polyreactivity (PSR sort gate)", "result": "low polyreactivity"}
{"polymer_sequence": "QVQLVESGGGLVQAGGSLRLSCAASGSIFRSYAMGWYRQAPGKERELVAAISRRGGSTYYADSVKGRFTISRDNAKNTVYLQMNSLKPEDTAVYYCAADRTGPYDYWGQGTQVTVSS", "attribute_measured": "polyreactivity (PSR sort gate)", "result": "high polyreactivity"}

stdin: Value lookup for polyreactivity (PSR sort gate); key = QVQLVESGGGLVQAGGSLRLSCAASGSIFFPYAMGWYRQAPGKERELVAAITRSGGRTYYADSVKGRFTISRDNAKNTVYLQMNSLKPEDTAVYYCAAGPWYNFYDSRPWFSYDYWGQGTQVTVSS
stdout: low polyreactivity

stdin: Likewise for QVQLVESGGGLVQAGGSLRLSCAASGSIFYYYSMGWYRQAPGKERELVATISSTTTTYADSVKGRFTISRDNPINTVYLNMNSMKPEDTAVYYCSFDYWGHGTQVTVSS ?
stdout: low polyreactivity

stdin: Likewise for QVQLVESGGGLVQAGVSLRLSCAASGGTFLVSAKGWYRQAPGKERQMVAAISVSGGSTYYADSVKGRFTISRDNAKNTVYLQMNSLKPEDTAVYYCAATYSHPFHTYVLRFFAYYYWGQGTQVTVSS ?
stdout: high polyreactivity

stdin: Likewise for QVQLVESCGGLVQAGGILRLSCAASGFISSENAMGWYRQAPGKERELVAAISSGGSTNYADSVKGRFTISRDNAKNTVYLQMNRLKAEVTAVYYCAATLQGWYHEDESWGQGTQVTVSS ?
stdout: low polyreactivity

stdin: Likewise for QVQLVESGGGLVQAGGSLRLTCAASGRIFGYYVMGWYRQAPGKERELVAAIRSSADSTYYADSVKGRFTISRDNAKNTVYLQMNSLKPEDTAVYYCNADTTGYWSYGFQYYGEDYWGQGTQVTVSS ?
stdout: low polyreactivity

stdin: Likewise for QVQLVESGGRLVQAGGSLRLSCAPSGIIFIWNTMGWYRQAPGKESEFVAAISRSGSGTSYADSVKGRFTISRDNAKNTVYLQMNSLKPEDTAVYYCAARLECPYDMYYWGQGTQVTVSS ?
stdout: low polyreactivity

stdin: Likewise for QVQLVESGGGLVQAGGSLRLSCAASGGTFNGYAMGWYRQAPGKERELVAAITSGGGSTYADSVKGRFTISRDNAKNTVYLQMNSLKTEDTAVYYCNADQWDEWFWDYDYWGQGTQVTVSS ?
stdout: low polyreactivity

stdin: Likewise for QVQLVESGGGLVQAGGSLSLSCAASGRTLYSNAMGWYRPAPGKERELVAAISRRGSSTYYADSVKGRFTISRDNAKNSVFLQMNSLKPEDTAVYYCARYKYTRQTRVEYGYWGQGTQVTVSS ?
stdout: high polyreactivity

stdin: Likewise for QVQLVESGGGLVQAGGSLRLSCAASGSTFYINAMGWYRQAPGKERVLVAAISWSGGSTYYADSVKGRFTISRDNAKNTVYLQMNSLKPEDTAVYYCAADWYLGWSLDYDYWGQGTQVTVSS ?
stdout: low polyreactivity

stdin: Likewise for QVQLVESGGGLVQAGGSLRLSCAASGSTFGLYVMGWYRQAPGKERELVATITRSGGSTYADSVKGRFTISRDNAKNTVYLQMNSLKPEDTAVYYCNADYPKPVYYSYWHQEFEYWGQGTQVTVSS ?
stdout: low polyreactivity

stdin: Likewise for QVQLVESGGGLVQAGGSLRLSCAASGSTFRVYAMGWYRQAPGKEREFVAAITGSDGSTYYADSVKGRFTISRDNAKNTVYLQMNSLKPEDTAVYYCAADYYLQNYETGYGYWGQGTQVTVSS ?
stdout: low polyreactivity

stdin: Likewise for QVQLVESGGGLVQAGGSLRLSCAASGITFYGYVMGWYRQAPGKERELVAAISVRGGSTYYADSVKGRFTISRDNAKNTVYLQMNSLKPEDTAVYYSAAWSYAYYYRLRYVSHDYWRQGTQVTVSS ?
stdout: high polyreactivity

stdin: Likewise for QVQLVESGAGIVQAGGSLRLSCAASGSIFRVYAMGWYRQAPWKERELVAAISRTGGSTYYADSVKGRFTISRDNAKNTVYLPMNSLQPEDTAVDYCAARQRYVGYYYWGQGTQVTVSS ?
stdout: high polyreactivity

stdin: Likewise for QVQLVESGGGLVQAGGRLRLSCAASGLTFAKYSMGWYRQAPGTERELVAAITASGASTYYADSVKGRFTISRDNAKNTVYLQMNSLKPEDTAVYYCAVRRYYNDYWGQGSQVTVSS ?
stdout: low polyreactivity

stdin: Likewise for QVQLVESGGGLVQAGGSLRLSCAASGRTSRVNAMGWYRQAPGKERELVATITKSGGSTFYADSVKGRFTISRDNPKNTVYLQMNILKPEDTAVYYCNAGGVRATKGYDYWGQGTQVTVSS ?
stdout: low polyreactivity

stdin: Likewise for QVQLVESGGGLVQAGGSLRLSCAASGSTFRYNAMGWYRQAPGKERELVAGISYRGGTTYYADSVKGRFTISRDNAKNTVYLQMNSLKPEDTAVYYCAAGASSPGGWFYYWGQGTQVTVSS ?
stdout: high polyreactivity

stdin: Likewise for QVQLVESGGGLVQAGGSLRLSCAASGRTFRVYAMGWYRQAPGKERELVAAINGGGSTNYADSVKGRFTISRDNAKNTVYLQMNSLKPEDTAVYYCIATGRRSKRIYDYWGQGTQVTVSS ?
stdout: high polyreactivity

Data origin: the nanobody polyreactivity screen of Harvey et al. (2022)
